// values below are reported koff
Assay target: T1, human serum albumin (HSA), full length (human, UniProt P02768 25-609)
T1 construct: mature; Immobilized on CM5 chip (SPR) or coated on plates (ELISA)
T1 sequence (P02768 25-609): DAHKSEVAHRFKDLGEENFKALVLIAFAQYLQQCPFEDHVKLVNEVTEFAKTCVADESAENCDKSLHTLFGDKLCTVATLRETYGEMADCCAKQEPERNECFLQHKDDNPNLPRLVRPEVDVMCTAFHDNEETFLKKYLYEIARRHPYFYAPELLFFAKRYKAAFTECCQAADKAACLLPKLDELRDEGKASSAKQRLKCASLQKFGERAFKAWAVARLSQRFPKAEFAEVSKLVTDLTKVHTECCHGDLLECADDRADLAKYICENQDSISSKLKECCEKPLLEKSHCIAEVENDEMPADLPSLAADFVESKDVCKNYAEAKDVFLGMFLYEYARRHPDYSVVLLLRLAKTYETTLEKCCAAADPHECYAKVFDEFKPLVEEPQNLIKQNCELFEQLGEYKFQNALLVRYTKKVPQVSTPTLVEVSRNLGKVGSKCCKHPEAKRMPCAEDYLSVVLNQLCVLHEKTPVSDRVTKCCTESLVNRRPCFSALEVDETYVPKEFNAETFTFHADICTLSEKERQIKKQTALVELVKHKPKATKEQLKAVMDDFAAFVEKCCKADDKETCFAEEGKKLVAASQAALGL
Assay protocol: SPR kinetics, immobilized albumin, 1:1 fit, 37 C
// return numeric value only (unit: s⁻¹, not printed)

# annotated cases, reported koff shown
Binder | Units text | koff
ADX_7016_A01 (parent PKE2 Adnectin) (designed binder, N-terminal Met may be cleaved; also called 2629_E06; ADX_2629_E06) MGVSDVPRDLEVVAATPTSLLISWDAPAVTVRYYRITYGREVQKYSDLGPLYIYQEFTVPGSKSTATISGLKPGVDYTITVYAVTGSGESPASSKPISINYRTEIDKPSQHHHHHH | s⁻¹ | 0.000378
ADX_7016_C03 (Y44Q) (designed binder, Full His6-tagged entry; also called 6727_B03) MGVSDVPRDLEVVAATPTSLLISWDAPAVTVRYYRITYGREVQKYSDLGPLYIQQEFTVPGSKSTATISGLKPGVDYTITVYAVTGSGESPASSKPISINYRTEIDKPSQHHHHHH | s⁻¹ | 0.0285
ADX_7016_G01 (Y44S) (designed binder, Full His6-tagged entry; also called 6727_G02) MGVSDVPRDLEVVAATPTSLLISWDAPAVTVRYYRITYGREVQKYSDLGPLYISQEFTVPGSKSTATISGLKPGVDYTITVYAVTGSGESPASSKPISINYRTEIDKPSQHHHHHH | s⁻¹ | 0.0032

Next up:
koff for ADX_7016_E02 (L38T) (designed binder, Full His6-tagged entry; also called 6727_E08) MGVSDVPRDLEVVAATPTSLLISWDAPAVTVRYYRITYGREVQKYSDTGPLYIYQEFTVPGSKSTATISGLKPGVDYTITVYAVTGSGESPASSKPISINYRTEIDKPSQHHHHHH ?
0.0161
